List of IC50 values.
target: T1, HLA class I molecule A02.01; assay: competition with radiolabeled reference peptide on purified MHC I
T1 construct: Purified MHC class I complex; also called HLA-A02:01
Number in nM, nothing else.

[[record]]
binder = "MLTGPPARV (also called GATA3 . . ; CSNH)"
observed_measurement = 10.6

[[record]]
binder = "LLPEDTPPL (also called MSH6(+1))"
observed_measurement = 2.8


# evaluate next
Query: Supply reported IC50 belonging to this binder: IIEYCFYGDL (also called PDGFRa, T674I)
Result: 1090
